System: PCSK9 gene
test: PCSK9 gRNA/SpCas9 editing in primary human hepatocytes (Tables 2, 4)
Type: cell-based
condition-set: 500 ng/RNA/mL; SpCas9 mRNA MS002 1:1 by weight
Experimental: In set of experiments, PCSK9 gRNAs were co-transfected with an equivalent amount (1:1 ratio by weight) of in vitro transcribed commercially available SpCas9 mRNA MS002 purchased from TriLink Biotechnologies into primary human hepatocytes at 2500, 500, or 100 ng/RNA/mL and processed as described in detailed methods. Extracted genomic DNA was analyzed for gene editing at the target site with next-generation sequencing of PCR amplicons generated around the target sites. […]
In the oligonucleotide strings, read from the 5' end, every base follows the letter of its sugar. An asterisk marks phosphorothioate; unmarked linkages are phosphodiester. Other units and linkages are bracketed, terminal groups are in braces. A string of capitals states the bases alone. m = 2'-O-methyl; r = 2'-OH (RNA)
// Human Primary Hepatocyte Editing % 500 lookup, one value per entry
Numeric answer only, unit % assumed.

[
  {
    "molecule": "GA192: PCSK9 gRNA; protospacer CCATGTCGACTACATCGAGG (SEQ ID NO: 186) (nucleic acid) guide: mC*mC*mA*rUrGrUrCrGrArCrUrArCrArUrCrGrArGrGrGrUrUrUrUrArGrArGrCrUrArGrArArArUrArGrCrArArGrUrUrArArArArUrArArGrGrCrUrArGrUrCrCrGrUrUrArUrCrArArCrUrUrGrArArArArArGrUrGrGrCrArCrCrGrArGrUrCrGrGrUrGrCrU*mU*mU*mU",
    "Human Primary Hepatocyte Editing % 500 / %": 6.02
  },
  {
    "molecule": "GA184: PCSK9 gRNA; protospacer ATGGAAGACATGCAGGATCT (SEQ ID NO: 178) (nucleic acid) guide: mA*mU*mG*rGrArArGrArCrArUrGrCrArGrGrArUrCrUrGrUrUrUrUrArGrArGrCrUrArGrArArArUrArGrCrArArGrUrUrArArArArUrArArGrGrCrUrArGrUrCrCrGrUrUrArUrCrArArCrUrUrGrArArArArArGrUrGrGrCrArCrCrGrArGrUrCrGrGrUrGrCrU*mU*mU*mU",
    "Human Primary Hepatocyte Editing % 500 / %": 8.29
  }
]

What does the record list as Human Primary Hepatocyte Editing % 500 for GA174: PCSK9 gRNA; protospacer GGATCTTGGTGAGGTATCCC (SEQ ID NO: 168) (nucleic acid, sugars from the 5' end m3 r94 m3, linkages s3 o93 s3 (s phosphorothioate, o phosphodiester), T or U not given here) guide: GGAUCUUGGUGAGGUAUCCCGUUUUAGAGCUAGAAAUAGCAAGUUAAAAUAAGGCUAGUCCGUUAUCAACUUGAAAAAGUGGCACCGAGUCGGUGCUUUU ?
5.24
